- ASSAY NOTES: Inhibition of quorum sensing system in Pseudomonas aeruginosa PAO1 MH602 harboring lasB promoter fused with GFP-ASV assessed as reduction in GFP-ASV reporter protein expression at 29 uM measured every 30 mins relative to control
Activity calls are given as the source filed them. The calls are words filed in the database; no cut-off is given here.
READOUT KIND: inhibition

MOLECULE	OBSERVED VALUE
CCCC(OC(=O)CCCCCCCCCCO[N+](=O)[O-])C1=CC(=C(Br)Br)OC1=O (stereo unspecified)	6.2%
CCCC(SC(=O)CCO[N+](=O)[O-])C1=CC(=C(Br)Br)OC1=O (stereo unspecified)	33.6%
CCCC(OC(=O)CCCO[N+](=O)[O-])C1=CC(=C(Br)Br)OC1=O (stereo unspecified)	12.3%
CCCCCCCC(O[N+](=O)[O-])C1=CC(=C(Br)Br)OC1=O (stereo unspecified)	inactive
CCCCCC(OC(=O)CC(=O)N1CCN(/[N+]([O-])=N/OC)CC1)C1=CC(=C(Br)Br)OC1=O (stereo unspecified)	23.7%
CCCC(O)C1=CC(=C(Br)Br)OC1=O (stereo unspecified)	37%

Here's the next entry for you.
IN: Please report the recorded inhibition for CCCC(OC(=O)CCO[N+](=O)[O-])C1=CC(=C(Br)Br)OC1=O (stereo unspecified) .
OUT: 43.1%
